Assignment: determine reported IC50 for the given binders.
# target_entity: T1, His-tagged, full-length PCSK9 (human, UniProt A8T644 31-152; Q8NBP7 153-692)
# T1 construct: Target protein of the PCSK9/EGF(A) TR-FRET assay (10 nM); also called His-PCSK9; proprotein convertase subtilisin/kexin type 9
# measurement_notes: TR-FRET competition; competitor EGF(A)-Fc on His-PCSK9
Bridge positions count the residues as written; N and C are the ends.
Numbers only, in µM.

Ac-FCLWNLARIGSQCWF-NH2 (disulfide 2-13; SMILES CC[C@H](C)[C@@H]1NC(=O)[C@H](CCCNC(=N)N)NC(=O)[C@H](C)NC(=O)[C@H](CC(C)C)NC(=O)[C@H](CC(N)=O)NC(=O)[C@H](Cc2c[nH]c3ccccc23)NC(=O)[C@H](CC(C)C)NC(=O)[C@@H](NC(=O)[C@H](Cc2ccccc2)NC(C)=O)CSSC[C@@H](C(=O)N[C@@H](Cc2c[nH]c3ccccc23)C(=O)N[C@@H](Cc2ccccc2)C(N)=O)NC(=O)[C@H](CCC(N)=O)NC(=O)[C@H](CO)NC(=O)CNC1=O) [Compound 88]	17.9

Lookup: Please report the recorded IC50 for H-WCLWNLKRIGSQCWF-NH2 (disulfide 2-13; SMILES CC[C@H](C)[C@@H]1NC(=O)[C@H](CCCNC(=N)N)NC(=O)[C@H](CCCCN)NC(=O)[C@H](CC(C)C)NC(=O)[C@H](CC(N)=O)NC(=O)[C@H](Cc2c[nH]c3ccccc23)NC(=O)[C@H](CC(C)C)NC(=O)[C@@H](NC(=O)[C@@H](N)Cc2c[nH]c3ccccc23)CSSC[C@@H](C(=O)N[C@@H](Cc2c[nH]c3ccccc23)C(=O)N[C@@H](Cc2ccccc2)C(N)=O)NC(=O)[C@H](CCC(N)=O)NC(=O)[C@H](CO)NC(=O)CNC1=O) [Compound 89] .
Found: 6.9
